- settings: pH 7.3
propertyName: logD
Hey, just send me the number, nothing else.

[Q] Indicate the recorded logD value for this compound: `O=C(Nc1ccccc1)Nc1cnns1`
[A] 1.77

* * *

Flag rule - logP less than 4 flags satisfied; the remaining entries get not satisfied.

[Q] I'd appreciate it if you could check whether `N#CN` has logP smaller than 4.
[A] satisfied

[Q] I'd appreciate it if you could check whether CCCC1COC(Cn2cncn2)(c2ccc(Cl)cc2Cl)O1 (configuration not stated) has logP smaller than 4.
[A] satisfied

[Q] I'd appreciate it if you could check whether `C[n+]1ccc(-c2cc[n+](C)cc2)cc1.[Cl-].[Cl-]` has logP smaller than 4.
[A] satisfied

[Q] I'd appreciate it if you could check whether `CC(C)N1C(=O)N(c2ccccc2)CSC1=NC(C)(C)C` has logP smaller than 4.
[A] not satisfied

[Q] I'd appreciate it if you could check whether CCC(C)(NC(=O)c1cc(Cl)c(C)c(Cl)c1)C(=O)CCl (configuration not stated) has logP smaller than 4.
[A] satisfied

[Q] I'd appreciate it if you could check whether `CCCCCCCC(=O)Oc1c(Br)cc(C#N)cc1Br` has logP smaller than 4.
[A] not satisfied

[Q] I'd appreciate it if you could check whether `Fc1ccc(Oc2ccnc3cc(Cl)cc(Cl)c23)cc1` has logP smaller than 4.
[A] not satisfied

* * *

So basically, the class depends on measured logP, and the ranges are group 1 (below 2), group 2 (2 to below 4), group 3 (4 or more)

[Q] // return the class label for `CON=C(C(=O)OC)c1ccccc1CON=C(C)c1cccc(C(F)(F)F)c1`
[A] group 3

[Q] // return the class label for `CCSC(=O)N(CC)C1CCCCC1`
[A] group 2

[Q] // return the class label for `Cc1ccc2nc3sc(=O)sc3nc2c1`
[A] group 2

[Q] // return the class label for `COC(=O)c1ccccc1CS(=O)(=O)NC(=O)Nc1nc(OC)cc(OC)n1`
[A] group 2

[Q] // return the class label for `CN(C)C(=S)SSC(=S)N(C)C`
[A] group 1

[Q] // return the class label for CC(C)=CC1C(C(=O)OCc2cccc(Oc3ccccc3)c2)C1(C)C (centres undefined)
[A] group 3

[Q] // return the class label for `CN/C(=N\[N+](=O)[O-])NCc1cnc(Cl)s1`
[A] group 1

[Q] // return the class label for `Nc1nc[nH]n1`
[A] group 1

[Q] // return the class label for `CCCC(=O)N(CSP(=S)(OC)OC)c1ccccc1Cl`
[A] group 1

[Q] // return the class label for CC1OC(C)OC(C)OC(C)O1 (centres undefined)
[A] group 1

[Q] // return the class label for `CC1=C(C(=O)Nc2ccccc2)S(=O)(=O)CCO1`
[A] group 1

[Q] // return the class label for `CC1(C(=O)Nc2ccc(O)c(Cl)c2Cl)CCCCC1`
[A] group 2

[Q] // return the class label for `CCC(CC)Nc1c([N+](=O)[O-])cc(C)c(C)c1[N+](=O)[O-]`
[A] group 3

[Q] // return the class label for Clc1ccc(C2(Cn3cncn3)CC(Br)CO2)c(Cl)c1 (centres undefined)
[A] group 2

[Q] // return the class label for `CN1CSC(=S)N(C)C1`
[A] group 1

[Q] // return the class label for `CCN(Cc1ccc(Cl)nc1)/C(=C/[N+](=O)[O-])NC`
[A] group 1

[Q] // return the class label for `CCN(CC)c1c([N+](=O)[O-])cc(C(F)(F)F)c(N)c1[N+](=O)[O-]`
[A] group 3

[Q] // return the class label for `CCCCOC(=O)[C@@H](C)Oc1ccc(Oc2ccc(C#N)cc2F)cc1`
[A] group 2

[Q] // return the class label for `COC(=O)N(C(=O)N1CO[C@@]2(C(=O)OC)Cc3cc(Cl)ccc3C2=N1)c1ccc(OC(F)(F)F)cc1`
[A] group 3

[Q] // return the class label for `O=C(Nc1ccccc1-c1ccc(Cl)cc1)c1cccnc1Cl`
[A] group 2

[Q] // return the class label for `CCOC(=O)COc1cc(-c2nn(C)c(OC(F)F)c2Cl)c(F)cc1Cl`
[A] group 2

* * *

What logP was measured for each of the following?
Hey, just send me the number, nothing else.

[Q] Indicate the recorded logP value for this compound: `Nc1c(Cl)c(Cl)nc(C(=O)O)c1Cl`
[A] 1.9

[Q] Indicate the recorded logP value for this compound: C=CCOC(Cn1ccnc1)c1ccc(Cl)cc1Cl (stereo not given)
[A] 3.82

[Q] Indicate the recorded logP value for this compound: CCCCC(CC)COC(=O)COc1ccc(Cl)cc1Cl (stereo not given)
[A] 5.78

[Q] Indicate the recorded logP value for this compound: CCOC1Oc2ccc(OS(C)(=O)=O)cc2C1(C)C (stereo not given)
[A] 2.7

[Q] Indicate the recorded logP value for this compound: `O=[N+]([O-])/N=C1\NCCN1Cc1ccc(Cl)nc1`
[A] 0.57

* * *

propertyName: solubility (µM)
Return type: number; implicit unit µM.

[Q] Indicate the recorded solubility value for this compound: `C/C=C(\C)C(=O)O[C@H]1C[C@@H](OC(C)=O)[C@@]2(C(=O)OC)CO[C@H]3[C@@H](O)[C@@](C)([C@]45O[C@@]4(C)[C@H]4C[C@@H]5O[C@@H]5OC=C[C@@]54O)[C@H]4[C@]1(CO[C@]4(O)C(=O)OC)[C@@H]32`
[A] 361

* * *

- settings: 25 °C
Tag: yes if measured solubility is not below 300 µM, no if it is.

[Q] Record CC(C)=CC1C(C(=O)OCc2coc(Cc3ccccc3)c2)C1(C)C (stereo not drawn) ; criterion: solubility no lower than 300 µM. Met?
[A] no

[Q] Record Clc1ccc(C2(Cn3cncn3)CC(Br)CO2)c(Cl)c1 (stereo not drawn) ; criterion: solubility no lower than 300 µM. Met?
[A] no

[Q] Record CC(C)=CC1C(C(=O)OCc2cccc(Oc3ccccc3)c2)C1(C)C (stereo not drawn) ; criterion: solubility no lower than 300 µM. Met?
[A] no

[Q] Record `CC1=C(C(=O)Nc2ccccc2)S(=O)(=O)CCO1` ; criterion: solubility no lower than 300 µM. Met?
[A] yes

[Q] Record CCOC1Oc2ccc(OS(C)(=O)=O)cc2C1(C)C (stereo not drawn) ; criterion: solubility no lower than 300 µM. Met?
[A] no

[Q] Record `N#Cc1c(Cl)c(Cl)c(Cl)c(C#N)c1Cl` ; criterion: solubility no lower than 300 µM. Met?
[A] no

[Q] Record `CC(C)N(C(=O)CCl)c1ccccc1` ; criterion: solubility no lower than 300 µM. Met?
[A] yes

[Q] Record C#CCOS(=O)OC1CCCCC1Oc1ccc(C(C)(C)C)cc1 (stereo not drawn) ; criterion: solubility no lower than 300 µM. Met?
[A] no

* * *

- settings: pH 7.0; 25 °C
propertyName: solubility (µM)
Return type: number; implicit unit µM.

[Q] Indicate the recorded solubility value for this molecule: `COC(=O)c1ccccc1S(=O)(=O)NC(=O)Nc1nc(C)cc(C)n1`
[A] 743

* * *

- settings: pH 7.6; 20 °C
propertyName: solubility (µM)
Return type: number; implicit unit µM.

[Q] Indicate the recorded solubility value for this molecule: C=CCOC(Cn1ccnc1)c1ccc(Cl)cc1Cl (stereo unspecified)
[A] 606

* * *

- settings: 20 °C
What solubility was measured for each of the following?
Return type: number; implicit unit mM.

[Q] Indicate the recorded solubility value for this compound: `Cc1ccc2nc3sc(=O)sc3nc2c1`
[A] 0.00427

[Q] Indicate the recorded solubility value for this compound: `CCCN(CC1CC1)c1c([N+](=O)[O-])cc(C(F)(F)F)cc1[N+](=O)[O-]`
[A] 0.000288

[Q] Indicate the recorded solubility value for this compound: `N#CN`
[A] 11900

[Q] Indicate the recorded solubility value for this compound: `CC1=C(C(=O)Nc2ccccc2)SCCO1`
[A] 0.672

[Q] Indicate the recorded solubility value for this compound: CCCC1COC(Cn2cncn2)(c2ccc(Cl)cc2Cl)O1 (stereo not given)
[A] 0.321

[Q] Indicate the recorded solubility value for this compound: `C[n+]1ccc(-c2cc[n+](C)cc2)cc1`
[A] 2410

[Q] Indicate the recorded solubility value for this compound: `CN1CSC(=S)N(C)C1`
[A] 18.5

[Q] Indicate the recorded solubility value for this compound: C[C@@H]1[C@@H](c2ccc(Cl)cc2)SC(=O)N1C(=O)NC1CCCCC1 (single isomer, unassigned)
[A] 0.00142

[Q] Indicate the recorded solubility value for this compound: `N#CCON=C(C#N)c1ccccc1`
[A] 0.513

[Q] Indicate the recorded solubility value for this compound: `Fc1ccc(Oc2ccnc3cc(Cl)cc(Cl)c23)cc1`
[A] 0.000376

* * *

- settings: 22 °C
propertyName: solubility (mM)
Return type: number; implicit unit mM.

[Q] Indicate the recorded solubility value for this molecule: CC(Oc1cccc(Cl)c1)C(=O)O (stereo unspecified)
[A] 5.98

* * *

- settings: 20 °C
propertyName: solubility

[Q] Indicate the recorded solubility value for this compound: `CCCCNC1(P(=O)(OCCCC)OCCCC)CCCCC1`
[A] 0.489 mM

[Q] Indicate the recorded solubility value for this compound: `CSc1nnc(C(C)(C)C)c(=O)n1/N=C/C(C)C`
[A] 0.0373 mM

[Q] Indicate the recorded solubility value for this compound: `CC(C)N1C(=O)N(c2ccccc2)CSC1=NC(C)(C)C`
[A] 0.00295 mM

[Q] Indicate the recorded solubility value for this compound: `CCC(CC)Nc1c([N+](=O)[O-])cc(C)c(C)c1[N+](=O)[O-]`
[A] 0.00107 mM

[Q] Indicate the recorded solubility value for this compound: `C[n+]1ccc(-c2cc[n+](C)cc2)cc1.[Cl-].[Cl-]`
[A] 2720 mM

[Q] Indicate the recorded solubility value for this compound: `CCOP(=O)(OCC)SCCSCC`
[A] 7.74 mM
